- Tested on: OVCAR-8 ovarian
- Assay details: NCI tumour cell line growth inhibition, 48 h
For each entry below, report its TGI value.

Query string: Would you mind telling me what TGI value was observed for COC(=O)N[C@H]1C=C[C@@H]2/C=C(C)/C=C/[C@@H](C)[C@H]([C@H](C)[C@H](O)[C@@H](C)NC(C)=O)OC(=O)/C=C/C=C(C)\C=C\[C@]2(C)C1 ?
Result string: > 45.3 µM

Query string: Would you mind telling me what TGI value was observed for COc1cc2c(cc1OCCCC(=O)Nc1cc(C(=O)Nc3cc(C(=O)Nc4cc(C(=O)NCCCN(C)C)n(C)n4)n(C)c3)n(C)c1)N=CC1CCCN1C2=O (stereo not given) ?
Result string: > 100 µM

Query string: Would you mind telling me what TGI value was observed for Cc1c(C)n(COCCO)c2ncnc(N)c12 ?
Result string: > 100 µM

Query string: Would you mind telling me what TGI value was observed for O=C1NC(=NCc2c(Cl)cccc2Cl)S/C1=C\c1ccc2ncccc2c1 ?
Result string: > 25 µM

Query string: Would you mind telling me what TGI value was observed for CCOc1ccc(C2Oc3c(cccc3OC)C=C2[N+](=O)[O-])cc1OCC (stereo not given) ?
Result string: 4.75 µM

Query string: Would you mind telling me what TGI value was observed for COc1ccc2c(c1)C(=O)C1(C2)[C@H](c2ccccc2)C2C(=O)c3cc(OC)ccc3C2[C@H]1c1ccccc1 (stereo not given in full) ?
Result string: > 100 µM

Query string: Would you mind telling me what TGI value was observed for NC1(P(=O)(O)O)CCCCC1 ?
Result string: > 100 µM

Query string: Would you mind telling me what TGI value was observed for CN(C)c1nc2n(CCO)ccnc-2c(=O)n1 ?
Result string: > 100 µM

Query string: Would you mind telling me what TGI value was observed for CC(=O)OC1COC(n2nc(N)nc2C)C(OC(C)=O)C1OC(C)=O (stereo not given) ?
Result string: > 100 µM

Query string: Would you mind telling me what TGI value was observed for CC[N-]c1nnnn1CC.[Au+].c1ccc([PH+](c2ccccc2)c2ccccc2)cc1 ?
Result string: 3.07 µM

Query string: Would you mind telling me what TGI value was observed for O=C(OC1C(Oc2ccccc2COC(=O)C2(O)C=CCCC2=O)OC(CO)C(O)C1O)c1ccccc1 (stereo not given) ?
Result string: > 100 µM

Query string: Would you mind telling me what TGI value was observed for Cc1ccccc1Cn1nc2ccccc2cc1=O ?
Result string: > 100 µM

Query string: Would you mind telling me what TGI value was observed for CC(C)OP(=O)(OC(C)C)/C(F)=N/Nc1ccc([N+](=O)[O-])cc1 ?
Result string: > 100 µM

Query string: Would you mind telling me what TGI value was observed for COc1cc2nccc(Oc3ccc(NC(=O)C4(C(=O)Nc5ccc(F)cc5)CC4)cc3)c2cc1OC(=O)c1ccc(N)cc1 ?
Result string: > 100 µM

Query string: Would you mind telling me what TGI value was observed for CCCC(=O)Nc1ccc(O)c2c1C1CCCCCC21 (stereo not given) ?
Result string: > 100 µM

Query string: Would you mind telling me what TGI value was observed for COc1cc2c(cc1OCCCCCN1CCN(CCCCCOc3cc4c(cc3OC)C(=O)C3CCC[C@H]3C=N4)CC1)N=C[C@@H]1CCCC1C2=O (stereo not given in full) ?
Result string: > 37 µM

Query string: Would you mind telling me what TGI value was observed for CCOP(=O)(OCC)C(C)(C)OC(=O)NC(F)(F)F ?
Result string: > 100 µM

Query string: Would you mind telling me what TGI value was observed for c1ccc(P2c3ccccc3Nc3ccccc32)cc1 ?
Result string: > 100 µM

Query string: Would you mind telling me what TGI value was observed for O=C(O)C(CCc1ccccc1)N1C(=O)c2ccccc2C1=O (stereo not given) ?
Result string: > 100 µM

Query string: Would you mind telling me what TGI value was observed for COC(=O)C(=O)C(CC(=O)Nc1c(C)cccc1C)C(=O)OC (stereo not given) ?
Result string: > 100 µM

###

- System: SW-620 colon
- Assay details: NCI tumour cell line growth inhibition, 48 h
Measure name: TGI

Query string: Would you mind telling me what TGI value was observed for CC(=O)OCc1cc(=O)n2c([nH]c3ccccc32)c1C#N ?
Result string: > 100 µM

Query string: Would you mind telling me what TGI value was observed for NS(=O)(=O)c1ccc(N=Nc2c(O)[nH]c3ccc(Cl)cc23)cc1 ?
Result string: > 25 µM

Query string: Would you mind telling me what TGI value was observed for CCN(CC)C(=S)SS(=O)(=O)c1ccc(N)cc1 ?
Result string: > 100 µM

Query string: Would you mind telling me what TGI value was observed for CN1CCN(Cc2nc3cccc4c3c([n+]2[O-])-c2ccccc2-4)CC1 ?
Result string: > 100 µM

Query string: Would you mind telling me what TGI value was observed for O=C(Nc1ccccc1SC(/C=C/NNC1=NC(c2ccccc2)C(c2ccccc2)=NN1)c1ccccc1)c1ccc(Cl)cc1Cl (stereo not given) ?
Result string: > 100 µM

###

- System: DU-145 prostate
- Assay details: NCI tumour cell line growth inhibition, 48 h
For each entry below, report its TGI value.

Query string: Would you mind telling me what TGI value was observed for Cc1ccc2c(/C=C/c3ccc(N(C)C)cc3)ccnc2c1C ?
Result string: > 100 µM

Query string: Would you mind telling me what TGI value was observed for O=[N+]([O-])/C(C(Cl)=C(Cl)Cl)=C(\Nc1cccc2ccccc12)n1nnc2ccccc21 ?
Result string: > 100 µM

Query string: Would you mind telling me what TGI value was observed for O=S(=O)(Nc1ccc2ccccc2c1)N1CCCCC1 ?
Result string: 30.3 µM

Query string: Would you mind telling me what TGI value was observed for NC(N)=NCCN1CCCCCc2ccccc21 ?
Result string: > 10 µM

Query string: Would you mind telling me what TGI value was observed for C=C1C(=O)C23CC1CCC2C12CO[C@H](O)[C@H]1C(C)(C)[C@H](OC(C)=O)C[C@H]2OC3=O (stereo partly specified) ?
Result string: 83.3 µM

Query string: Would you mind telling me what TGI value was observed for COc1ccc(/C=C/C(=O)Nc2cc(/C=C\c3cc(OC)c(OC)c(OC)c3)cc(OC)c2OC)cc1OC ?
Result string: > 100 µM

Query string: Would you mind telling me what TGI value was observed for Nc1c(C(=O)N/N=C/c2ccco2)cnn1-c1ccnc2c(C(F)(F)F)cccc12 ?
Result string: 36.5 µM

Query string: Would you mind telling me what TGI value was observed for CCOC(=O)c1cc(C)n(CN(CCO)Cn2nc(C(=O)OCC)cc2C)n1 ?
Result string: 71.5 µM

Query string: Would you mind telling me what TGI value was observed for C=C(C)[C@@H]1CC[C@]2(C(N)=O)CC[C@]3(C)[C@H](CC[C@@H]4[C@@]5(C)C/C(=C/c6cccnc6)C(=O)C(C)(C)[C@@H]5CC[C@]43C)[C@@H]12 ?
Result string: > 100 µM

Query string: Would you mind telling me what TGI value was observed for CCOC(=O)C(C(=O)OCC)C1C=CCC2c3ccccc3COCC21 (stereo unspecified) ?
Result string: > 100 µM

Query string: Would you mind telling me what TGI value was observed for C#CC#CC#CC#CC#CC#CC#CC#CC[C@@H]1OC[C@H](COC(=O)O[C@@H](C(=O)O[C@H]2C[C@@]3(O)[C@@H](OC(=O)c4ccccc4)[C@@H]4[C@]5(OC(C)=O)CO[C@@H]5C[C@H](O)[C@@]4(C)C(=O)[C@H](OC(C)=O)C(=C2C)C3(C)C)[C@@H](NC(=O)c2ccccc2)c2ccccc2)O1 ?
Result string: > 25 µM

Query string: Would you mind telling me what TGI value was observed for O=C(Nc1ccccc1C(=O)N/N=C(\c1ccccc1)c1ccccn1)c1ccccc1 ?
Result string: > 100 µM

Query string: Would you mind telling me what TGI value was observed for CC(C)NC1(C(N)=O)CCN(Cc2ccccc2)CC1 ?
Result string: > 100 µM

Query string: Would you mind telling me what TGI value was observed for CCCCCN1C(=O)/C(=c2\sc3n(c2=O)C2C(NN=3)N(CC)C(=O)N2CC)c2ccccc21 (stereo unspecified) ?
Result string: 4.52 µM

Query string: Would you mind telling me what TGI value was observed for CCC(C)CN=C(N)c1ccc(N2CCN(c3ccc(C(N)=NCC(C)CC)cc3)CC2)cc1 (stereo unspecified) ?
Result string: > 100 µM

Query string: Would you mind telling me what TGI value was observed for CC1=CC(C)C(C)N(CC2=NCCN2)c2ccccc21 (stereo unspecified) ?
Result string: > 100 µM

Query string: Would you mind telling me what TGI value was observed for CCOc1ccccc1C(=O)/C=C/c1cc2ccccc2[nH]c1=O ?
Result string: 0.905 µM

Query string: Would you mind telling me what TGI value was observed for CC1(C)OCC(C2OC(OC(=O)c3ccc(C(F)(F)F)cc3)C3OC(C)(C)OC23)O1 (stereo unspecified) ?
Result string: > 77.5 µM

Query string: Would you mind telling me what TGI value was observed for O=C1c2ccccc2CC12CCC1(CC2)OCCO1 ?
Result string: > 100 µM

Query string: Would you mind telling me what TGI value was observed for Cc1oc2c(cc(O)c3ccccc32)c2cccc1-2 ?
Result string: > 100 µM

Query string: Would you mind telling me what TGI value was observed for O=C1NC(=NCc2c(Cl)cccc2Cl)S/C1=C\c1ccc2ncccc2c1 ?
Result string: > 25 µM

Query string: Would you mind telling me what TGI value was observed for N=C(N)c1ccc(-c2ccc(-c3ccccc3)s2)s1 ?
Result string: 1.1 µM

Query string: Would you mind telling me what TGI value was observed for COc1ccc(C2NC(=O)c3cc4c(cc3N2)OCO4)cc1 (stereo unspecified) ?
Result string: > 100 µM

Query string: Would you mind telling me what TGI value was observed for COc1cc(-c2cc(-c3nc4ccc(F)cc4[nH]3)[nH]n2)cc(OC)c1OC ?
Result string: 13 µM

Query string: Would you mind telling me what TGI value was observed for CCNC(=O)N1CCc2c(Cl)c3c(c(OC)c2[C@@H]1[C@H]1OCc2c1ccc(OC)c2OC)OCCO3 ?
Result string: > 100 µM

Query string: Would you mind telling me what TGI value was observed for Oc1ccc2c(c1)OCC1(O)Cc3cc(O)c(O)cc3C21 (stereo unspecified) ?
Result string: 22.5 µM

Query string: Would you mind telling me what TGI value was observed for CS(=O)(=O)Nc1ccc2c(c1)N(S(C)(=O)=O)CC2COS(C)(=O)=O (stereo unspecified) ?
Result string: > 100 µM

Query string: Would you mind telling me what TGI value was observed for COC(=O)C(C)NP(=O)(OCc1ccc(Cn2cnc3c(N)ncnc32)cc1)Oc1ccccc1 (stereo unspecified) ?
Result string: > 100 µM

Query string: Would you mind telling me what TGI value was observed for CCOC(=O)/C=C/C1OC(C)(C)OC1/C=C/C(=O)OCC (stereo unspecified) ?
Result string: > 100 µM

Query string: Would you mind telling me what TGI value was observed for COc1cc(Br)c(CC2C3=C(CCN2C(=O)C2CCC2)CC2(CC3)OCCO2)cc1O (stereo unspecified) ?
Result string: > 100 µM

Query string: Would you mind telling me what TGI value was observed for CCOC(=O)c1cc(C(=O)c2cc(OC)c(OC)c(OC)c2)n2nc(C)ccc12 ?
Result string: > 100 µM

Query string: Would you mind telling me what TGI value was observed for CCN(CC)c1ccc2cc(-c3nc4ccccc4n3C)c(=O)oc2c1 ?
Result string: > 24.2 µM

Query string: Would you mind telling me what TGI value was observed for CCOP(=O)(OCC)C(C)(CC)NC1=NC(C(F)(F)F)(C(F)(F)F)NC(=O)N1 (stereo unspecified) ?
Result string: > 100 µM

Query string: Would you mind telling me what TGI value was observed for COc1cc(C(=O)O[C@H]2CCC3CCC2N3C)cc(OC)c1OC (stereo partly specified) ?
Result string: > 100 µM

Query string: Would you mind telling me what TGI value was observed for CO/C(=N\N=C\c1ccccc1F)c1ccncc1 ?
Result string: > 10 µM

Query string: Would you mind telling me what TGI value was observed for COc1cc2c3c(n(CCCN)c(=O)c2cc1OC)-c1ccc(N(C)C)cc1C3=O ?
Result string: 6.6 µM

Query string: Would you mind telling me what TGI value was observed for NC1(P(=O)(O)O)CCCCC1 ?
Result string: > 100 µM

Query string: Would you mind telling me what TGI value was observed for O=S(=O)(Nc1nc2ccccc2n1S(=O)(=O)c1ccccc1)c1ccccc1 ?
Result string: > 100 µM

Query string: Would you mind telling me what TGI value was observed for NS(=O)(=O)c1ccc(N=Nc2c(O)[nH]c3ccc(Cl)cc23)cc1 ?
Result string: > 25 µM

Query string: Would you mind telling me what TGI value was observed for COc1ccc(C2=Cc3nc2c(-c2ccccc2)c2ccc([nH]2)c(-c2ccccc2)c2nc(c(-c4ccccc4)c4ccc([nH]4)c3-c3ccccc3)C=C2)cc1 ?
Result string: > 100 µM

Query string: Would you mind telling me what TGI value was observed for CN1CCC(CN2c3ccccc3Sc3ccccc32)C1 (stereo unspecified) ?
Result string: 38.1 µM
